Hey, just so you know, these numbers are from ChEMBL document CHEMBL1126507.

System: Enterobacter cloacae
MEASUREMENT NOTES: Minimum inhibitory concentration required for antibacterial activity against Enterobacter cloacae CL 4298 strain
Assay type: functional
MEASURE NAME: MIC (µg/mL)

| MOLECULE SMILES | MEASURED TARGET | OBSERVED VALUE |
| --- | --- | --- |
| CC[C@H]1OC(=O)[C@H](C)[C@@H](O[C@H]2C[C@@](C)(OC)[C@@H](O)[C@H](C)O2)[C@H](C)[C@@H](O[C@@H]2O[C@H](C)C[C@H](N(C)C)[C@H]2O)[C@](C)(O)C[C@@H](C)NC[C@H](C)[C@@H](O)[C@]1(C)O | Enterobacter cloacae | 4 |
| CC[C@H]1OC(=O)[C@H](C)[C@@H](O[C@H]2C[C@@](C)(OC)[C@@H](O)[C@H](C)O2)[C@H](C)[C@@H](O[C@@H]2O[C@H](C)C[C@H](N(C)C)[C@H]2O)[C@](C)(O)C[C@@H](C)/N=C2/O[C@@]1(C)[C@H](O)[C@H]2C | Enterobacter cloacae | 128 |
| CC[C@H]1OC(=O)[C@H](C)[C@@H](O[C@H]2C[C@@](C)(OC)[C@@H](O)[C@H](C)O2)[C@H](C)[C@@H](O[C@@H]2O[C@H](C)C[C@H](N(C)C)[C@H]2O)[C@](C)(O)C[C@@H](C)N(C)C[C@H](C)[C@@H](O)[C@]1(C)O | Enterobacter cloacae | 1 |
| CC[C@H]1OC(=O)[C@H](C)[C@@H](O[C@H]2C[C@@](C)(OC)[C@@H](O)[C@H](C)O2)[C@H](C)[C@@H](O[C@@H]2O[C@H](C)C[C@H](N(C)C)[C@H]2O)[C@](C)(O)C[C@@H](C)CN(C)[C@H](C)[C@@H](O)[C@]1(C)O | Enterobacter cloacae | 1 |
| CC[C@H]1OC(=O)[C@H](C)[C@@H](O[C@H]2C[C@@](C)(OC)[C@@H](O)[C@H](C)O2)[C@H](C)[C@@H](O[C@@H]2O[C@H](C)C[C@H](N(C)C)[C@H]2O)[C@@]2(C)C[C@@H](C)N=C(O2)[C@H](C)[C@@H](O)[C@]1(C)O | Enterobacter cloacae | 128 |

* * *

Tested on: Staphylococcus epidermidis
MEASUREMENT NOTES: Minimum inhibitory concentration required for antibacterial activity against Staphylococcus epidermidis MB 5414 strain
Assay type: functional
MEASURE NAME: MIC (µg/mL)

| MOLECULE SMILES | OBSERVED VALUE |
| --- | --- |
| CC[C@H]1OC(=O)[C@H](C)[C@@H](O[C@H]2C[C@@](C)(OC)[C@@H](O)[C@H](C)O2)[C@H](C)[C@@H](O[C@@H]2O[C@H](C)C[C@H](N(C)C)[C@H]2O)[C@](C)(O)C[C@@H](C)/N=C2/O[C@@]1(C)[C@H](O)[C@H]2C | 16 |
| CC[C@H]1OC(=O)[C@H](C)[C@@H](O[C@H]2C[C@@](C)(OC)[C@@H](O)[C@H](C)O2)[C@H](C)[C@@H](O[C@@H]2O[C@H](C)C[C@H](N(C)C)[C@H]2O)[C@](C)(O)C[C@@H](C)NC(=O)[C@H](C)[C@@H](O)[C@]1(C)O | 0.5 |
| CC[C@H]1OC(=O)[C@H](C)[C@@H](O[C@H]2C[C@@](C)(OC)[C@@H](O)[C@H](C)O2)[C@H](C)[C@@H](O[C@@H]2O[C@H](C)C[C@H](N(C)C)[C@H]2O)[C@](C)(O)C[C@@H](C)NC[C@H](C)[C@@H](O)[C@]1(C)O | 0.5 |
| CC[C@H]1OC(=O)[C@H](C)[C@@H](O[C@H]2C[C@@](C)(OC)[C@@H](O)[C@H](C)O2)[C@H](C)[C@@H](O[C@@H]2O[C@H](C)C[C@H](N(C)C)[C@H]2O)[C@](C)(O)C[C@@H](C)C(=O)[C@H](C)[C@@H](O)[C@]1(C)O | 0.125 |
